study-system: phosphopantetheine adenylyltransferase (PPAT, CoaD) (Escherichia coli, UniProt P0A6I6)
Construct: recombinant full-length enzyme expressed from coaD plasmid and purified; hexamer
Sequence (P0A6I6 whole entry): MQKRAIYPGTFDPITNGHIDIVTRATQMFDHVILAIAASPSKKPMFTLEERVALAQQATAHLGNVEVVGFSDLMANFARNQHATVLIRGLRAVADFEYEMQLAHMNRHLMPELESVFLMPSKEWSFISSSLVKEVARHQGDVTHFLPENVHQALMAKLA
test-summary: capping of […]-labelled 5-mer pppRNA with pPant, denaturing PAGE
measurement-conditions: read-out: half-maximal inhibition
measurement-name: IC50

Reported IC50, compound Nc1ncnc2c1ncn2[C@@H]1O[C@H](COP(=O)(O)OP(=O)(O)OP(=O)(O)O)[C@@H](O)[C@H]1O : ____
~5 µM

// provenance: paper PMC10761072
